# System: L1210
# Assay Overview: Concentration of compound required to inhibit the cellular protein biosynthesis by 50%
# Assay type: functional, cell-based
# Settings: Mus musculus
Experimental Readout: pEC50
Note: pEC50 values are expressed as the negative base-10 logarithm of concentration in M.

# annotated cases, reported pEC50 shown
INSERT INTO measurements (compound, experimental_readout, reported_measurement) VALUES
  ('CN(C)CCNc1ccc2ncnc3c2c1C(=O)c1ccccc1-3', 'pEC50', 6.69),
  ('O=C1c2ccccc2-c2ncnc3ccc(NCCNCCO)c1c23', 'pEC50', 6.53),
  ('NCCCNc1ccc2ncnc3c2c1C(=O)c1ccccc1-3', 'pEC50', 6.26);

Enquiry: What does the record list as pEC50 for CCN(CC)CCNc1ccc2ncnc3c2c1C(=O)c1ccccc1-3 ?
Return: 6.34

Enquiry: I have this compound here, Nc1ccc2ncnc3c2c1C(=O)c1ccccc1-3 , and I need its recorded pEC50.
Return: 6.02

Enquiry: For the compound NCCNc1ccc2ncnc3c2c1C(=O)c1ccccc1-3 , what pEC50 is on record?
Return: 6.42

Enquiry: Item O=C1c2ccccc2C(=O)c2c(NCCNCCO)ccc(NCCNCCO)c21 [AMETANTRONE] has what recorded pEC50?
Return: 6.56

Enquiry: Item CNCCNc1ccc2ncnc3c2c1C(=O)c1ccccc1-3 has what recorded pEC50?
Return: 6.57

###

# Assay Overview: Ratio of toxic deaths/survivors 7 days after the day 5 injection as a measure of drug toxicity at the dose of 50 (mg/kg)
# Format: organism-based
# Settings: in vivo, 168 h
Experimental Readout: ToxD/Surv
Write no unit; give the number alone.

INSERT INTO results (smiles_notation, reported_measurement) VALUES
  ('CCN(CC)CCNc1ccc2ncnc3c2c1C(=O)c1ccccc1-3', 5);

Enquiry: I am curious: what ToxD/Surv value has been reported for NCCNc1ccc2ncnc3c2c1C(=O)c1ccccc1-3 ?
Return: 7

###

# Assay Overview: NADH oxidation by the compound was determined
# Format: functional
Activity overview
Unit µM/min implied. Number only.

Completed entries (count: 5):
INSERT INTO results (smiles_notation, unit_abbrev, reported_measurement) VALUES
  ('NCCNc1ccc2ncnc3c2c1C(=O)c1ccccc1-3', 'µM/min', 4.5),
  ('NCCCNc1ccc2ncnc3c2c1C(=O)c1ccccc1-3', 'µM/min', 4.7),
  ('CCN(CC)CCNc1ccc2ncnc3c2c1C(=O)c1ccccc1-3', 'µM/min', 7),
  ('O=C1c2ccccc2-c2ncnc3ccc(NCCNCCO)c1c23', 'µM/min', 7.4),
  ('CNCCNc1ccc2ncnc3c2c1C(=O)c1ccccc1-3', 'µM/min', 7.6);

Next item in the queue.
Enquiry: Fill in: Activity of CN(C)CCNc1ccc2ncnc3c2c1C(=O)c1ccccc1-3 is ___
Return: 6.5

###

# System: P388
# Assay Overview: Ratio of medium survival time of the treated to the control mice at the dose of 50 (mg/kg)
# Assay type: functional, Mus musculus
Experimental Readout: T/C (%)
Just the number please, in %, no unit attached.

Please review the following examples before continuing.
INSERT INTO results (smiles_notation, experimental_target, unit_abbrev, reported_measurement) VALUES
  ('NCCNc1ccc2ncnc3c2c1C(=O)c1ccccc1-3', 'P388', '%', 150),
  ('CCN(CC)CCNc1ccc2ncnc3c2c1C(=O)c1ccccc1-3', 'P388', '%', 140),
  ('CNCCNc1ccc2ncnc3c2c1C(=O)c1ccccc1-3', 'P388', '%', 146);

Enquiry: Give the reported T/C for O=C1c2ccccc2-c2ncnc3ccc(NCCNCCO)c1c23 (system: P388).
Return: 173

Enquiry: Lab request: please report T/C under test system P388 for NCCCNc1ccc2ncnc3c2c1C(=O)c1ccccc1-3
Return: 127

###

# Assay Overview: Ratio of toxic deaths/survivors 7 days after the day 5 injection as a measure of drug toxicity at the dose of 100 (mg/kg)
# Assay type: organism-based
# Settings: in vivo, 168 h
Each record here notes measured ToxD/Surv.
Answer with a number only.

Guide cases for ToxD/Surv, answers given:
INSERT INTO assay_data (smiles_notation, reported_measurement) VALUES
  ('CNCCNc1ccc2ncnc3c2c1C(=O)c1ccccc1-3', 6),
  ('CCN(CC)CCNc1ccc2ncnc3c2c1C(=O)c1ccccc1-3', 7),
  ('Nc1ccc2ncnc3c2c1C(=O)c1ccccc1-3', 0),
  ('CN(C)CCNc1ccc2ncnc3c2c1C(=O)c1ccccc1-3', 6);

Shifting focus to the molecule that follows.
Enquiry: // lookup ToxD/Surv for NCCCNc1ccc2ncnc3c2c1C(=O)c1ccccc1-3
Return: 4

###

# maps each entry to its ToxD/Surv
# Assay Overview: Ratio of toxic deaths/survivors 7 days after the day 5 injection as a measure of drug toxicity at the dose of 50 (mg/kg)
# Type: organism-based
# Settings: in vivo, 168 h
Lab note: record the figure alone, no unit after it.

Examples from the recorded data:
INSERT INTO measurements (smiles_notation, reported_measurement) VALUES
  ('CNCCNc1ccc2ncnc3c2c1C(=O)c1ccccc1-3', 6),
  ('CN(C)CCNc1ccc2ncnc3c2c1C(=O)c1ccccc1-3', 6);

Query compound follows.
Enquiry: Any idea what ToxD/Surv was measured for NCCCNc1ccc2ncnc3c2c1C(=O)c1ccccc1-3 ?
Return: 7
